test: Pharmacokinetics of antibiotics in silkworm hemolymph after injection (HPLC); details: in vivo
*1 amine or outer side, *2 acyl side, *3 side chain or, on linkers, in order; H or OH if unused. Where a SMILES comes first, the peptide text is derived from it. Bridges are numbered along the chain shown (N, C = ends). [ ]: non-standard residue; d: D form. The star is where a group is joined. hTyr(3S-OH,4S-OH,3'-OSO3H) = N[C@H](C(=O)O)[C@H](O)[C@@H](O)c1ccc(O)c(OS(=O)(=O)O)c1; Orn(4R-OH,5R-OH) = O=C([C@H](C[C@@H](O)[C@@H](O)N[*:3])N[*:1])[*:2]; Pro(3S-OH,4S-Me) = C[C@H]1CN[C@H](C(=O)O)[C@H]1O; X1 = CCCCCOc1ccc(-c2cc(-c3ccc(C(=O)*)cc3)no2)cc1; Gln(3R-OH) = NC(=O)C[C@@H](O)[C@H](N)C(=O)O; Hyp = O=C(O)[C@@H]1C[C@@H](O)CN1
reported.metric: half-life (h)

- compound: "CN[C@H](CC(C)C)C(=O)N[C@H]1C(=O)N[C@@H](CC(N)=O)C(=O)N[C@H]2C(=O)N[C@H]3C(=O)N[C@H](C(=O)N[C@H](C(=O)O)c4cc(O)cc(O)c4-c4cc3ccc4O)[C@H](O)c3ccc(c(Cl)c3)Oc3cc2cc(c3O[C@@H]2O[C@H](CO)[C@@H](O)[C@H](O)[C@H]2O[C@H]2C[C@](C)(N)[C@H](O)[C@H](C)O2)Oc2ccc(cc2Cl)[C@H]1O [Vancomycin]"
  assay.result: 13
- compound: "O=C(N[C@H](CO)[C@H](O)c1ccc([N+](=O)[O-])cc1)C(Cl)Cl [Chloramphenicol]"
  assay.result: 6
- compound: "CCCCCOc1ccc(-c2cc(-c3ccc(C(=O)N[C@H]4C[C@@H](O)[C@@H](O)NC(=O)[C@@H]5[C@@H](O)[C@@H](C)CN5C(=O)[C@H]([C@H](O)CC(N)=O)NC(=O)[C@H]([C@H](O)[C@@H](O)c5ccc(O)c(OS(=O)(=O)O)c5)NC(=O)[C@@H]5C[C@@H](O)CN5C(=O)[C@H]([C@@H](C)O)NC4=O)cc3)no2)cc1 [Micafungin] (X1-[Orn(4R-OH,5R-OH)]T[Hyp][hTyr(3S-OH,4S-OH,3'-OSO3H)][Gln(3R-OH)][Pro(3S-OH,4S-Me)]; lactam 1-C)"
  assay.result: 12

---

test: Pharmacokinetics of antibiotics in silkworm hemolymph after injection (HPLC); settings: hemolymph
reported.metric: half-life

- compound: "OC(Cn1cncn1)(Cn1cncn1)c1ccc(F)cc1F [Fluconazole]"
  assay.result: "12 h"

---

Measured HPLC peak area in hemolymph by item
test: Pharmacokinetics of antibiotics in silkworm hemolymph after injection (HPLC); settings: 1 min after injection; raw data of Fig. 1
*1 amine or outer side, *2 acyl side, *3 side chain or, on linkers, in order; H or OH if unused. Where a SMILES comes first, the peptide text is derived from it. Bridges are numbered along the chain shown (N, C = ends). [ ]: non-standard residue; d: D form. The star is where a group is joined. hTyr(3S-OH,4S-OH,3'-OSO3H) = N[C@H](C(=O)O)[C@H](O)[C@@H](O)c1ccc(O)c(OS(=O)(=O)O)c1; Orn(4R-OH,5R-OH) = O=C([C@H](C[C@@H](O)[C@@H](O)N[*:3])N[*:1])[*:2]; Pro(3S-OH,4S-Me) = C[C@H]1CN[C@H](C(=O)O)[C@H]1O; X1 = CCCCCOc1ccc(-c2cc(-c3ccc(C(=O)*)cc3)no2)cc1; Gln(3R-OH) = NC(=O)C[C@@H](O)[C@H](N)C(=O)O; Hyp = O=C(O)[C@@H]1C[C@@H](O)CN1

- compound: "CN[C@H](CC(C)C)C(=O)N[C@H]1C(=O)N[C@@H](CC(N)=O)C(=O)N[C@H]2C(=O)N[C@H]3C(=O)N[C@H](C(=O)N[C@H](C(=O)O)c4cc(O)cc(O)c4-c4cc3ccc4O)[C@H](O)c3ccc(c(Cl)c3)Oc3cc2cc(c3O[C@@H]2O[C@H](CO)[C@@H](O)[C@H](O)[C@H]2O[C@H]2C[C@](C)(N)[C@H](O)[C@H](C)O2)Oc2ccc(cc2Cl)[C@H]1O [Vancomycin]"
  HPLC peak area in hemolymph: 7258474
- compound: "CO[C@H]1/C=C/O[C@@]2(C)Oc3c(C)c(O)c4c(O)c(c(/C=N/N5CCN(C)CC5)c(O)c4c3C2=O)NC(=O)/C(C)=C\\C=C\\[C@H](C)[C@H](O)[C@@H](C)[C@@H](O)[C@@H](C)[C@H](OC(C)=O)[C@@H]1C [Rifampicin]"
  HPLC peak area in hemolymph: 1080705
- compound: "CCCCCOc1ccc(-c2cc(-c3ccc(C(=O)N[C@H]4C[C@@H](O)[C@@H](O)NC(=O)[C@@H]5[C@@H](O)[C@@H](C)CN5C(=O)[C@H]([C@H](O)CC(N)=O)NC(=O)[C@H]([C@H](O)[C@@H](O)c5ccc(O)c(OS(=O)(=O)O)c5)NC(=O)[C@@H]5C[C@@H](O)CN5C(=O)[C@H]([C@@H](C)O)NC4=O)cc3)no2)cc1 [Micafungin] (X1-[Orn(4R-OH,5R-OH)]T[Hyp][hTyr(3S-OH,4S-OH,3'-OSO3H)][Gln(3R-OH)][Pro(3S-OH,4S-Me)]; lactam 1-C)"
  HPLC peak area in hemolymph: 2078182
- compound: "CN(C)[C@@H]1C(O)=C(C(N)=O)C(=O)[C@@]2(O)C(O)=C3C(=O)c4c(O)cccc4[C@@](C)(O)[C@H]3C[C@@H]12 [Tetracycline]"
  HPLC peak area in hemolymph: 8079061

All figures here come from paper PMC6602958.
